system: Bacillus subtilis; assay: Antibiotic activity against Bacillus subtilis NBRC 3513 by microplate dilution assay; format: functional
Recorded MIC values for a group of molecules are listed next.
Numbers only; they are read as µg/mL.

Here is how some molecules turned out for MIC.
Report MIC for CC(C)C[C@@H]1NC(=O)[C@H](CCCN)NC(=O)[C@H](C(C)C)NC(=O)[C@@H](Cc2ccc(O)cc2)NC(=O)[C@@H]2CCCN2C(=O)[C@@H](Cc2ccccc2)NC(=O)[C@H](CC(C)C)NC(=O)[C@H](CCCN)NC(=O)[C@H](C(C)C)NC(=O)[C@@H](Cc2ccc(O)cc2)NC(=O)[C@@H]2CCCN2C(=O)[C@@H](Cc2ccccc2)NC1=O [GRATISIN] please.
6.25

Which MIC reading was recorded for the molecule `CC(C)C[C@@H]1NC(=O)[C@H](CCCN)NC(=O)[C@H](C(C)C)NC(=O)[C@@H](CCCCN)NC(=O)[C@@H]2CCCN2C(=O)[C@@H](Cc2ccccc2)NC(=O)[C@H](CC(C)C)NC(=O)[C@H](CCCN)NC(=O)[C@H](C(C)C)NC(=O)[C@@H](CCCCN)NC(=O)[C@@H]2CCCN2C(=O)[C@@H](Cc2ccccc2)NC1=O` ?
6.25

I'd like to know its MIC. The molecule in question is `CC(C)C[C@@H]1NC(=O)[C@H](CCCN)NC(=O)[C@H](C(C)C)NC(=O)[C@@H](Cc2ccccc2)NC(=O)[C@@H]2CCCN2C(=O)[C@@H](Cc2ccccc2)NC(=O)[C@H](CC(C)C)NC(=O)[C@H](CCCN)NC(=O)[C@H](C(C)C)NC(=O)[C@@H](Cc2ccccc2)NC(=O)[C@@H]2CCCN2C(=O)[C@@H](Cc2ccccc2)NC1=O`
6.25

Entry `CCC[C@H]1NC(=O)[C@@H]2CCCN2C(=O)[C@@H](Cc2ccccc2)NC(=O)[C@H](CC(C)C)NC(=O)[C@H](CCCN)NC(=O)[C@H](C(C)C)NC(=O)[C@@H](CCC)NC(=O)[C@@H]2CCCN2C(=O)[C@@H](Cc2ccccc2)NC(=O)[C@H](CC(C)C)NC(=O)[C@H](CCCN)NC(=O)[C@H](C(C)C)NC1=O` : reported MIC = ?
12.5

State the recorded MIC for this entry: `CC(C)C[C@@H]1NC(=O)[C@H](CCCN)NC(=O)[C@H](C(C)C)NC(=O)CNC(=O)[C@@H]2CCCN2C(=O)[C@@H](Cc2ccccc2)NC(=O)[C@H](CC(C)C)NC(=O)[C@H](CCCN)NC(=O)[C@H](C(C)C)NC(=O)CNC(=O)[C@@H]2CCCN2C(=O)[C@@H](Cc2ccccc2)NC1=O`
100

Which MIC reading was recorded for the molecule `CC(C)C[C@@H]1NC(=O)[C@H](CCCN)NC(=O)[C@H](C(C)C)NC(=O)[C@@H](CCCNC(=N)N)NC(=O)[C@@H]2CCCN2C(=O)[C@@H](Cc2ccccc2)NC(=O)[C@H](CC(C)C)NC(=O)[C@H](CCCN)NC(=O)[C@H](C(C)C)NC(=O)[C@@H](CCCNC(=N)N)NC(=O)[C@@H]2CCCN2C(=O)[C@@H](Cc2ccccc2)NC1=O` ?
6.25

---
Could you tell me which MIC is on file for `CCCC[C@H]1NC(=O)[C@@H]2CCCN2C(=O)[C@@H](Cc2ccccc2)NC(=O)[C@H](CC(C)C)NC(=O)[C@H](CCCN)NC(=O)[C@H](C(C)C)NC(=O)[C@@H](CCCC)NC(=O)[C@@H]2CCCN2C(=O)[C@@H](Cc2ccccc2)NC(=O)[C@H](CC(C)C)NC(=O)[C@H](CCCN)NC(=O)[C@H](C(C)C)NC1=O` ?
6.25
